Target: HCV NS5B (Hepatitis C virus genotype 1b)
Construct: fusion protein, of which the carboxyl terminal 21 amino acids were removed to enhance its solubility; His tag (GSHHHHHH); made in house; host or cells: E. coli
Assay: Inhibition of viral RNA-dependent RNA polymerase (RdRp), in vitro biochemical assay
Parameters: species or system HCV genotype 1b virus (BB7)
Conditions: HCV NS5B RdRp, BB7; reported as range class; read-out: HCV pol-BB7 IC50
Give measured IC50 for each item. Keep answers brief.

Known results for compounds:
compound="CNC(=O)c1c(-c2ccc(F)cc2)oc2cc(N3CCOCC3)c(OC3CCCC3)cc12 [Example 173]" assay_system="HCV NS5B (Hepatitis C virus genotype 1b)" result="≤ 500 nM"
compound="CNC(=O)c1c(-c2ccc(F)cc2)oc2cc(-c3cccnc3)c(OC)cc12 [Example 236]" assay_system="HCV NS5B (Hepatitis C virus genotype 1b)" result="≤ 500 nM"
compound="CNC(=O)c1c(-c2ccc(F)cc2)oc2cc(-c3noc(C)n3)c(OC(C)C)cc12 [Example 198]" assay_system="HCV NS5B (Hepatitis C virus genotype 1b)" result="≤ 500 nM"
compound="CNC(=O)c1c(-c2ccc(F)cc2)oc2cc(OCc3ccccc3)c(OC)cc12 [Example 181]" assay_system="HCV NS5B (Hepatitis C virus genotype 1b)" result="≤ 500 nM"
compound="CNC(=O)c1c(-c2ccc(F)cc2)oc2cc(N(Cc3nsc(Cl)n3)S(C)(=O)=O)c(OC(C)C)cc12 [Example 234]" assay_system="HCV NS5B (Hepatitis C virus genotype 1b)" result="≤ 500 nM"

Record IC50 per entry; entries follow.
1. CNC(=O)c1c(-c2ccc(F)cc2)oc2cc(CO)c(OC(C)C)cc12 [Example 224]
2. CNC(=O)c1c(-c2ccc(F)cc2)oc2cc(NS(C)(=O)=O)ccc12 [Example 243]
3. CNC(=O)c1c(-c2ccc(F)cc2)oc2cc(N3CCOCC3)c(OCc3nccn3Cc3ccccc3)cc12 [Example 216]
4. CNC(=O)c1c(-c2ccc(F)cc2)oc2cc(N3CCOCC3)c(OCc3nnnn3C)cc12 [Example 209]
5. CNC(=O)c1c(-c2ccc(F)cc2)oc2cc(C(O)C(C)C)c(OC(C)C)cc12 (stereo not shown) [Example 238]
6. CNC(=O)c1c(-c2ccc(F)cc2)oc2cc(-c3cccc(S(C)(=O)=O)c3)c(OC(C)C)cc12 [Example 178]

1. ≤ 500 nM
2. 500 to 5000 nM
3. ≤ 500 nM
4. 500 to 5000 nM
5. ≤ 500 nM
6. ≤ 500 nM

###

Give measured EC50 for each item. Keep answers brief.
Test system: HCV replicon (BB7 sequence) in Huh-7-Clone A cells
Assay: HCV replicon assay: ELISA of NS5A protein in replicon-containing cells (Inhibition of Viral RNA Replication)
Format: cell-based
Details: Hepatitis C virus; HCV replicon assay; ranges of 50% effective concentration (EC50); read-out: Replicon

compound=CNC(=O)c1c(-c2ccc(F)cc2)oc2cc(NS(C)(=O)=O)c(-c3c(C)noc3C)cc12 result="< 10 µM"
compound="CNC(=O)c1c(-c2ccc(F)cc2)oc2cc(C3(C)NC(=O)NC3=O)c(OC)cc12 (stereo not shown)" result="< 10 µM"
compound=CNC(=O)c1c(-c2ccc(F)cc2)oc2cc(N(C)S(C)(=O)=O)c(OCC(=O)Nc3nncs3)cc12 result="< 1 µM"
compound=CNC(=O)c1c(-c2ccc(F)cc2)oc2cc(-c3c(C)noc3C)c(OCc3nnnn3C)cc12 result="< 1 µM"
compound="CNC(=O)c1c(-c2ccc(F)cc2)oc2cc(C3NC(=O)NC3=O)c(OC)cc12 (stereo not shown)" result="< 1 µM"
compound=CNC(=O)c1c(-c2ccc(F)cc2)oc2cc(N(C)S(C)(=O)=O)c(OCc3nnsc3Cl)cc12 result="< 1 µM"

Record EC50 per entry; entries follow.
1. CNC(=O)c1c(-c2ccc(F)cc2)oc2cc(N(CC3(CO)CC3)S(C)(=O)=O)c(OCC3(CO)CC3)cc12
2. CNC(=O)c1c(-c2ccc(F)cc2)oc2cc(N(C)S(C)(=O)=O)c(OC(C)c3nccs3)cc12 (stereo not shown)
3. CNC(=O)c1c(-c2ccc(F)cc2)oc2cc(N(C)S(C)(=O)=O)c(OCC(=O)O)cc12
4. CNC(=O)c1c(-c2ccc(F)cc2)oc2cc(-c3c(C)noc3C)c(OCc3c(C)noc3C)cc12
5. CNC(=O)c1c(-c2ccc(F)cc2)oc2cc(-c3c(C)noc3C)c(OCCN3CCC(C#N)CC3)cc12

1: < 10 µM; 2: < 1 µM; 3: < 30 µM; 4: < 1 µM; 5: < 1 µM

Record EC50 per entry; entries follow.
1. CNC(=O)c1c(-c2ccc(F)cc2)oc2cc(-c3c(C)noc3C)c(OCc3cscn3)cc12
2. CNC(=O)c1c(-c2ccc(F)cc2)oc2cc(N(C)S(C)(=O)=O)c(OCC(=O)Nc3nccs3)cc12
3. CNC(=O)c1c(-c2ccc(F)cc2)oc2cc(N(C)S(C)(=O)=O)c(OCC(=O)Nc3nc(C)c(C)s3)cc12

["< 1 µM", "< 1 µM", "< 1 µM"]

Record EC50 per entry; entries follow.
1. CNC(=O)c1c(-c2ccc(F)cc2)oc2cc(-c3c(C)noc3C)c(OCC3CC3)cc12
2. CNC(=O)c1c(-c2ccc(F)cc2)oc2cc(NS(C)(=O)=O)c(-c3ccco3)cc12
3. CNC(=O)c1c(-c2ccc(F)cc2)oc2cc(N(C)S(C)(=O)=O)c(OCc3ncc[nH]3)cc12
4. CNC(=O)c1c(-c2ccc(F)cc2)oc2cc(N(C)S(C)(=O)=O)c(OCc3nnc(N)[nH]3)cc12
5. CCOc1cc2c(C(=O)NC)c(-c3ccc(F)cc3)oc2cc1N(CC)CC

1. < 1 µM
2. < 1 µM
3. < 1 µM
4. < 1 µM
5. < 1 µM

###

Target: HCV NS5B (Hepatitis C virus genotype 1b, UniProt Q9WMX2)
Construct: fusion protein, of which the carboxyl terminal 21 amino acids were removed to enhance its solubility; His tag (GSHHHHHH); made in house; host or cells: E. coli
Assay: Inhibition of viral RNA-dependent RNA polymerase (RdRp), in vitro biochemical assay
Design: species or system HCV genotype 1b virus (BB7)
Conditions: HCV NS5B RdRp, BB7; class symbols A-D; read-out: HCV pol-BB7 IC50
Protocol: The HCV NS5B-directed RdRp activity was established and characterized in a standard in vitro biochemical assay using a purified HCV NS5B protein derived from the consensus sequence of a patient infected with HCV genotype 1b virus (BB7). […] In addition to evaluating their activity in the replicon assay, representative compounds within the scope of the present invention, as shown in examples 1-453 of Table 1, were also evaluated for antiviral activity using this assay. […]
Give measured IC50 for each item. Keep answers brief.

Record IC50 per entry; entries follow.
1. CNC(=O)c1c(-c2ccc(F)cc2)oc2cc(N(C)S(C)(=O)=O)c(O)cc12 [Example 287]
2. CNC(=O)c1c(-c2ccc(F)cc2)oc2cc(N3CCOCC3)c(OCC(C)O)cc12 (stereo not drawn) [Example 252]
3. CNC(=O)c1c(-c2ccc(F)cc2)oc2cc(-c3c(C)noc3COC)c(OC)cc12 [Example 280]
4. CNC(=O)c1c(-c2ccc(F)cc2)oc2cc(N(CC(O)c3ccc(F)cc3)S(C)(=O)=O)c(OC(C)C)cc12 (stereo not drawn) [Example 322]
5. CNC(=O)c1c(-c2ccc(F)cc2)oc2cc(C(C)=O)c(C)cc12 [Example 301]
6. C=CCOc1cc2c(C(=O)NC)c(-c3ccc(F)cc3)oc2cc1N(CC=C)S(C)(=O)=O [Example 288]

1: ≤ 500 nM; 2: 500 to 5000 nM; 3: ≤ 500 nM; 4: ≤ 500 nM; 5: ≤ 500 nM; 6: ≤ 500 nM

Record IC50 per entry; entries follow.
1. CNC(=O)c1c(-c2ccc(F)cc2)oc2cc(N3CCOCC3)c(OCC(C)(C)O)cc12 [Example 250]
2. CNC(=O)c1c(-c2ccc(F)cc2)oc2cc(N(C)S(C)(=O)=O)c(OCc3ccncc3)cc12 [Example 328]
3. CNC(=O)c1c(-c2ccc(F)cc2)oc2cc(N(Cc3c(C)noc3C)S(C)(=O)=O)c(OC(C)C)cc12 [Example 284]

["500 to 5000 nM", "≤ 500 nM", "≤ 500 nM"]

Record IC50 per entry; entries follow.
1. CNC(=O)c1c(-c2ccc(F)cc2)oc2ccc(OCc3ccc(C(=O)O)cc3)cc12 [Example 259]
2. CNC(=O)c1c(-c2ccc(F)cc2)oc2cc(N(C)S(C)(=O)=O)c(OCc3ccc4c(c3)C(=O)OC(C)(C)O4)cc12 [Example 329]

1. 500 to 5000 nM
2. ≤ 500 nM
